Assay: Mouse PK studies after oral and IV dosing
Type: in vivo
Conditions: in vivo, iv, 1 mg/kg, IV, dose 1 mg/kg, read-out: IV T1/2 (converted)
Collected half-life values appear next to each entry.
Field: numeric (h). Do not append units.

**Q:** Quick one: give measured half-life for C[C@H]1CC2(CCN(c3ccc(C(=O)N4CCC(CN5Cc6cc7c(cc6C5)C(=O)N(C5CCC(=O)NC5=O)C7=O)CC4)nn3)CC2)CN1c1ccc(C#N)c(Cl)c1 (stereo partly drawn)
**A:** 5.8

**Q:** Given the compound C[C@H]1CC2(CCN(c3cnc(C(=O)N4CCN(CC5CN(c6cc7c(cc6F)C(=O)N(C6CCC(=O)NC6=O)C7=O)C5)CC4)cn3)CC2)CN1c1ccc(C#N)c(Cl)c1 (stereo partly drawn) , write its reported half-life.
**A:** 5

**Q:** Tell me its half-life given C[C@H]1CC2(CCN(c3cnc(C(=O)N4CCC(N5CCN(c6cc7c(cc6F)C(=O)N(C6CCC(=O)NC6=O)C7=O)CC5)CC4)cn3)CC2)CN1c1ccc(C#N)c(Cl)c1 (stereo partly drawn) as the entry.
**A:** 1.9
